Test system: Haemophilus influenzae 1218
assay comment: MIC, microtiter broth dilution (NCCLS M100-S14), H. influenzae 1218 (susceptible)
Assay type: cell-based
condition info: Haemophilus influenzae 1218
observable: MIC H. influenzae 1218 (µg/mL)
Return type: number; implicit unit µg/mL.

Below are worked cases with known answers.
{"columns": ["compound", "study system", "MIC H. influenzae 1218 / µg/mL"],
 "data": [
  ["CCC1OC(=O)C(C)C(=O)C(C)C(OC2OC(C)CC(N(C)C)C2O)C(C)(OC)CC(C)C(=O)C(C)C2N(C3CN(S(=O)(=O)c4ccc(C#N)cc4)C3)C(=O)OC12C (stereo not drawn)", "Haemophilus influenzae 1218", 0.25],
  ["CC[C@H]1OC(=O)[C@H](C)C(=O)[C@H](C)[C@@H](O[C@@H]2O[C@H](C)C[C@H](N(C)C)[C@H]2O)[C@](C)(OC)C[C@@H](C)C(=O)[C@H](C)[C@H]2N(CC3(C)CN(Cc4ccc5nccnc5c4)C3)C(=O)O[C@]12C", "Haemophilus influenzae 1218", 1],
  ["CC[C@H]1OC(=O)[C@H](C)[C@@H](OC(=O)N2CCCC2)[C@H](C)[C@@H](O[C@@H]2O[C@H](C)C[C@H](N(C)C)[C@H]2O)[C@](C)(OC)C[C@@H](C)C(=O)[C@H](C)[C@H]2N(CC3CN(Cc4c[nH]c5ncccc45)C3)C(=O)O[C@]12C", "Haemophilus influenzae 1218", 1],
  ["CCC1OC(=O)C(C)C(=O)C(C)C(OC2OC(C)CC(N(C)C)C2O)C(C)(OC)CC(C)C(=O)C(C)C2N(C3CN(S(=O)(=O)c4ccc(C#N)nc4)C3)C(=O)OC12C (stereo not drawn)", "Haemophilus influenzae 1218", 0.5],
  ["CCC1OC(=O)C(C)C(=O)C(C)C(OC2OC(C)CC(N(C)C)C2O)C(C)(OC)CC(C)C(=O)C(C)C2N(C3CN(S(=O)(=O)c4ccc(-n5ccnc5)cc4)C3)C(=O)OC12C (stereo not drawn)", "Haemophilus influenzae 1218", 0.25]
]}

Entry CCC1OC(=O)C(C)C(=O)C(C)C(OC2OC(C)CC(N(C)C)C2O)C(C)(OC)CC(C)C(=O)C(C)C2N(C3CN(S(=O)(=O)c4ccc(F)c(-c5cnco5)c4)C3)C(=O)OC12C (stereo not drawn) , tested on Haemophilus influenzae 1218, has a reported MIC H. influenzae 1218 of 2

Entry CCC1OC(=O)C(C)C(=O)C(C)C(OC2OC(C)CC(N(C)C)C2O)C(C)(OC)CC(C)C(=O)C(C)C2N(C3CN(Cc4cc(OC)nc5ccccc45)C3)C(=O)OC12C (stereo not drawn) , tested on Haemophilus influenzae 1218, has a reported MIC H. influenzae 1218 of 1

Entry CCC1OC(=O)C(C)C(=O)C(C)C(OC2OC(C)CC(N(C)C)C2O)C(C)(OC)CC(C)C(=O)C(C)C2N(C3CN(Cc4cccc(-n5ccnn5)c4)C3)C(=O)OC12C (stereo not drawn) [Example 1.56, 3-([1,2,3]triazol-1-yl)benzyl] , tested on Haemophilus influenzae 1218, has a reported MIC H. influenzae 1218 of 1

Entry CCC1OC(=O)C(C)C(=O)C(C)C(OC2OC(C)CC(N(C)C)C2O)C(C)(OC)CC(C)C(=O)C(C)C2N(CC3CN(Cc4cccc(C#N)c4)C3)C(=O)OC12C (stereo not drawn) , tested on Haemophilus influenzae 1218, has a reported MIC H. influenzae 1218 of 0.12
